// data source = the supplement of paper PMC7125110

B1: glmS ribozyme (parent)
chain: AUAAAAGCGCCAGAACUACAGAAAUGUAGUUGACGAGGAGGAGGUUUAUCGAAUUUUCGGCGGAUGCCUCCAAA

Variants of: B1
Test: self-cleavage kobs at 640 uM GlcN6P; higher = faster cleavage; RNA array
Conditions: with glucosamine-6-phosphate
Fewer inactive variants are shown than the library holds.
self-cleavage kobs at 640 uM GlcN6P for assorted variants
Report as a plain number; the unit s⁻¹ is understood.

Sample records with self-cleavage kobs at 640 uM GlcN6P:
record-sequence	unit-name	self-cleavage kobs at 640 uM GlcN6P
AUAAAUGCGCCAGAACUACAGAAAUGUAGUUGACGAGGAGGAGGUUUAUCGAAUUUUCGGCGGAUGCCUCGAAA [A6U C71G]	s⁻¹	5.72e-05
AUAAAAGCGCCAGAACUACAGAAAUGUAGUUGACGAGGAGGAGGUUUAUCGAAUAUUCGGCGGAUGCUUCCAAA [U55A C68U]	s⁻¹	0.00148
AUAAAAGCGCCAGAACUACAGAAAUGUAGUUGACGAGGAGGAGGUUUAUCGAGUCUUCGGCGGAUGCCUCCAAA [A53G U55C]	s⁻¹	0.00872
AUAAAAGCGCCCGAACUACAGAAAUGUAGUUGACGAGGAGGAGGUUUAUCGAAUUUUCGGCGGAUGGCUCCAAA [A12C C67G]	s⁻¹	0.000444
AUAAAAGCGCCAGAACUACAGAAAUGUAGUUGACGAGGAGGAGGUUUAUCGAAUUUUCGGGGAAUGCCUCGAAA [C61G G63A C71G]	s⁻¹	0.000127

Q: Which self-cleavage kobs at 640 uM GlcN6P value belongs to AUAAAAGCGCCAGCACUACAGAAAUGUAGUGGACGAGGAGGAGGUUUAUCGAAUUUUCGGCGGAUGCCUCCAAA [A14C U31G] ?
Ans: 0.00494

Q: Which self-cleavage kobs at 640 uM GlcN6P value belongs to AUAAAAGCGCCAGGACUACAGAAAUGUAGCUGACGAGGAGGAGGUUUAUCGAAUUUUCGGCGGAUGCCUCCAAA [A14G U30C] ?
Ans: 0.000552
